System: PC-3 prostate
PROTOCOL NOTES: NCI-60 one-dose screen, 48 h
PROTOCOL CONDITIONS: 10 µM unless noted
This is part of a sample that, as a whole, favours compounds with a hit. Of some 83,000 tested, about 20% had one in any assay. Active and inactive are the calls of the source. Rule for the calls: active = growth percent below 10; inactive = the rest.
Can you answer with just one of these options? active, inactive

CC(=O)c1cc2c(N)c(C(=O)Nc3cccc4ccncc34)sc2nc1C: inactive
C=C1C(=O)O[C@H]2[C@H]1CC/C(COC(=O)NCCc1c[nH]c3ccc(OC)cc13)=C\CC[C@@]1(C)O[C@@H]21: inactive
COc1ccc(C(=O)C2C(C#N)C(C#N)C3C=Cc4ccccc4N32)cc1 (stereo not given): inactive
COc1cc(-c2cc(-c3ccc(N(C)C)cc3)nc(N3CCOCC3)c2C#N)cc(OC)c1OC: inactive

Ask: Please share the test call associated with `CN(C)c1ccc(Nc2c3ccccc3nc3cc(NC(=O)CCN4CCCC4)ccc23)cc1` .
Reply: active

----------
System: SK-MEL-28 melanoma
PROTOCOL NOTES: NCI-60 one-dose screen, 48 h (100 = growth as untreated, 0 = no growth, -100 = all killed)
PROTOCOL CONDITIONS: 10 µM unless noted
Compounds without any hit were thinned out: in the full panel of roughly 83,000, 20% have a hit. Active and inactive are the calls of the source. The calls were made as follows: active = growth percent below 10; inactive = the rest.
METRIC NAME: growth

# count of solved cases: 6
COc1ccc(C(=O)c2cc(C)c(OC)c(C)c2)c(OC)c1OC(=O)C(Cl)Cl: 53.3% (inactive)
O=C1Nc2ccccc2/C1=C\c1c(-c2ccccc2)nc2ccccn12: 58.6% (inactive)
C=C1C(=O)O[C@H]2[C@H]1CC/C(CNC(=O)c1cccc3ccccc13)=C\CC[C@@]1(C)O[C@@H]21: 41.2% (inactive)
COc1cc2cc(CN3CCN(c4nccc(-c5ccc6ccccc6c5)n4)CC3)c(=O)[nH]c2cc1OC: 102% (inactive)
Nc1nc(Nc2ccccc2SSc2ccccc2Nc2nc(N)nc(-c3ccc(C(F)(F)F)cc3)n2)nc(-c2ccc(C(F)(F)F)cc2)n1: 95.6% (inactive)
CC(=O)CCC(=O)OCc1cc(=O)c(O)co1: 98.1% (inactive)

Ask: Endpoint output: growth of `O=C(/C(=C/c1ccc([N+](=O)[O-])cc1)SCc1ccc(F)cc1)c1ccc(F)cc1` . Value?
Reply: 103% (inactive)

Ask: Endpoint output: growth of `Cc1cc(C)c(S(=O)(=O)Oc2ccccc2[N+](=O)[O-])c(C)c1` . Value?
Reply: 50.6% (inactive)

Ask: Endpoint output: growth of COc1cc(C2C3=C(COC3=O)N(CCO)c3cc4c(cc32)CCC4)cc(OC)c1OC (centres undefined) . Value?
Reply: 54.3% (inactive)

----------
Test system: COLO 205 colon
PROTOCOL NOTES: NCI-60 one-dose screen, 48 h
PROTOCOL CONDITIONS: 10 µM unless noted
About 83,000 compounds went through this panel and 20% of them were active in at least one assay; those are over-represented in the sample as a whole. The source made the active and inactive calls. The calls were made as follows: active = growth percent below 10; inactive = the rest.
Can you answer with just one of these options? active, inactive

Nc1c(C(=O)Nc2cccc3cnccc23)sc2nc3c(cc12)CN(Cc1ccccc1)CC3: inactive
CCN(c1ccccc1)S(=O)(=O)c1cc([N+](=O)[O-])ccc1Cl: inactive
COc1cc2nc(-c3ccc(Cl)cc3)cc(OCCCN3CCCC3)c2cc1OC: inactive
N/C(=N\C(N)=N\c1nc2ccccc2s1)c1ccnc(Br)c1: inactive
Cc1cccc(C)c1N=c1oc2ccc(Cl)cc2nc1-c1ccccc1O: inactive
NC(=NCCCOc1ccc(F)cc1)Nc1ccc(Cl)cc1: active
CC(=O)[C@@H]1CC[C@]2(C(N)=O)CC[C@]3(C)[C@H](CC[C@@H]4[C@@]5(C)CCCNC(C)(C)[C@@H]5CC[C@]43C)[C@@H]12: inactive
COc1cc(/C=C\c2cc(OC)c(OC)c(OC)c2)cc(NC(=O)/C=C/c2cc(OC)c(OC)c(OC)c2)c1OC: inactive

Ask: Please share the test call associated with `CCOc1cccc(-c2nc(N)nc(Nc3ccccc3SSc3ccccc3Nc3nc(N)nc(-c4cccc(OCC)c4)n3)n2)c1` .
Reply: inactive

Ask: Please share the test call associated with `COc1cc(C2=C(c3cn(C)c4ccccc34)COC2=O)cc(OC)c1OC` .
Reply: active

Ask: Please share the test call associated with `O=S(=O)(NCCCNc1nccc(-c2c(-c3cccc(F)c3)nc3sccn23)n1)c1cccc2ccccc12` .
Reply: inactive

Ask: Please share the test call associated with `COc1ccc2[nH]c(O)c(/C=c3/cc4c(c(-c5ccc(F)cc5)n3)=Nc3ccccc3-4)c2c1` .
Reply: inactive

Ask: Please share the test call associated with `c1ccc(-c2cn3c(ccc4ccccc43)n2)cc1` .
Reply: inactive

Ask: Please share the test call associated with COc1cc(NC(C)CCCNC(=O)CCC(=O)NCCCNCCCCCCCCCCNCCCNC(=O)CCC(=O)NCCCC(C)Nc2cc(OC)cc3cccnc23)c2ncccc2c1 (stereo not given) .
Reply: inactive

Ask: Please share the test call associated with `O=C(NO)c1ccc(-n2nc(-c3ccccc3)c3ccccc32)cc1` .
Reply: inactive

Ask: Please share the test call associated with CN1C(=O)NC(c2ccc3c(c2)OCO3)C=C1c1ccccc1 (stereo not given) .
Reply: inactive

Ask: Please share the test call associated with CN1CCC(=C(c2ccccc2)c2ccccc2)C(c2ccccc2)C1 (stereo not given) .
Reply: inactive

Ask: Please share the test call associated with CC(=O)N1N=C(c2ccc(-n3ccc(C(F)(F)F)n3)c(F)c2)CC1c1ccc[nH]1 (stereo not given) .
Reply: inactive

Ask: Please share the test call associated with `COc1ccc(C(=O)CC#N)cc1` .
Reply: inactive

Ask: Please share the test call associated with `COc1cc2c(=O)n(CCCN(C)C)c3c4cc5c(cc4ccc3c2cc1OC)OCO5` .
Reply: inactive

----------
Measured growth accompanies every entry in the list below.
System: HOP-62 NSCLC
PROTOCOL NOTES: NCI-60 one-dose screen, 48 h (100 = growth as untreated, 0 = no growth, -100 = all killed)
PROTOCOL CONDITIONS: 10 µM unless noted
Compounds without any hit were thinned out: in the full panel of roughly 83,000, 20% have a hit. The source made the active and inactive calls. How the source made its calls: active means growth percent below 10; inactive means the rest.

# count of solved cases: 2
O=C(/C=C(/C=C/c1csc2ccccc12)OB(F)F)/C=C/c1csc2ccccc12: 90.7% (inactive)
CC1(C)CC[C@]23CC[C@]4(C)[C@H](CC[C@@H]5[C@@]6(C)CCCNC(C)(C)[C@@H]6CC[C@]54C)[C@H]2[C@H]1OC3: 27.7% (inactive)

Consider the record given below.
Ask: Endpoint output: growth of `C#Cc1cccc(NC(=O)Nc2cccc(NC(=O)CCl)c2)c1` . Value?
Reply: 36.1% [8.25 µM] (inactive)

----------
Tested on: UACC-257 melanoma
PROTOCOL NOTES: NCI-60 one-dose screen, 48 h (100 = growth as untreated, 0 = no growth, -100 = all killed)
PROTOCOL CONDITIONS: 10 µM unless noted
This is part of a sample that, as a whole, favours compounds with a hit. Of some 83,000 tested, about 20% had one in any assay. Active and inactive are the calls of the source. How the source made its calls: active means growth percent below 10; inactive means the rest.
Measured growth accompanies every entry in the list below.

# count of solved cases: 4
CC(Sc1nc2ccccc2c(=O)n1CCc1ccc(S(N)(=O)=O)cc1)C(=O)Nc1ccc(Cl)cc1 (stereo not drawn): 90.2% (inactive)
O=S(=O)(NCCCNc1nccc(-c2c(-c3cccc(F)c3)nc3sccn23)n1)c1cccc(F)c1: 50.8% (inactive)
N/C(=N\C(N)=N\c1nc2ccccc2s1)c1cccc(Cl)c1: 113% (inactive)
COC(=O)/C=C1\S/C(=N\NC(=O)c2cc3ccc2/C=C\c2ccc(cc2)/C=C\3)N(c2ccccc2)C1=O: 69.2% (inactive)

Ask: Fill in the recorded growth for this compound, with UACC-257 melanoma as test system: `C=CCN1C(=O)/C(=C/C(=O)OC)S/C1=N\NC(=O)c1cc2ccc1/C=C\c1ccc(cc1)/C=C\2`
Reply: 91.1% (inactive)

Ask: Fill in the recorded growth for this compound, with UACC-257 melanoma as test system: `O=C(/C=C/c1ccc(Cl)cc1)c1ccc(NC(=O)N2CCN(c3cc4c(cc3F)c(=O)c(C(=O)O)cn4C3CC3)CC2)cc1`
Reply: 105% (inactive)

Ask: Fill in the recorded growth for this compound, with UACC-257 melanoma as test system: `CCOC(=O)Nc1ccc(-c2ccc3c(c2)NC(=O)/C3=C\c2ccc[nH]2)cc1`
Reply: 113% (inactive)

Ask: Fill in the recorded growth for this compound, with UACC-257 melanoma as test system: `Nc1n[nH]c2cccc(C#Cc3cccc(C(=O)Nc4cc(CN5CCOCC5)cc(C(F)(F)F)c4)c3)c12`
Reply: 33% (inactive)
